Test system: polyclonal antibody ab6982
Experiment: Epitope mapping of polyclonal antibody ab6982 against cyclic peptides of Ad5 fiber and hexon (peptide array)
Assay type: binding, rabbits
Conditions: cyclic peptides of hexon protein (clusters 8-16)
MEASUREMENT_TYPE: antibody binding signal ranking from the microarray experiment

Guide cases for antibody binding signal ranking from the microarray experiment, answers given:
1) 239 (INLEEEDDDNEDE) [compound 239] : 035
2) 242 (DDNEDEVDEQ) [compound 242] : 057
3) 236 (NLEEEDDDNEDEV) [compound 236] : 029
4) 273 (SEDVDIETPDTHI) [compound 273] : 050
5) 295 (YIPESYKDRMYSF) [compound 295] : 152

// recorded antibody binding signal ranking from the microarray experiment for 275 (VLYSEDVDIETPD) [compound 275] : 052

// recorded antibody binding signal ranking from the microarray experiment for 228 (DNEDEVDEQA) [compound 228] : 18

###

System: mAb 9C12
Assay: Epitope mapping of monoclonal antibody 9C12 against cyclic peptides of the AdV hexon protein (peptide microarray)
Format: binding, mice
Details: cyclic 7mer, 10mer, 13mer peptides of AdV hexon
Items are presented alongside their recorded ranked binding signal obtained from the microarray (01 binds strongest).
# output: bare number, no unit

Guide cases for ranked binding signal obtained from the microarray (01 binds strongest), answers given:
1) GNGLDKGEPVNAAD [SEQ ID NO: 1984] : 17
2) KKRPVDQSPQEPDS (REGION 1..14: note = peptide derived from viral capsid protein) [SEQ ID NO: 1985] : 18
3) YFGYSTPWGYFDFN (REGION 1..14: note = peptide derived from viral capsid protein) [SEQ ID NO: 1972] : 05
4) KSVNVDFTVDTNGV (REGION 1..14: note = peptide derived from viral capsid protein) [SEQ ID NO: 1987] : 20
5) EEEIRTTNPVATEQ (REGION 1..14: note = peptide derived from viral capsid protein) [SEQ ID NO: 1979] : 12
6) DDEEKFFPMHGNLI [SEQ ID NO: 1976] : 09

Field ranked binding signal obtained from the microarray (01 binds strongest) (mAb 9C12), entry GDSESVPDPQPLGE [SEQ ID NO: 1983] : 16

Field ranked binding signal obtained from the microarray (01 binds strongest) (mAb 9C12), entry DSESVPDPQPLGEP (REGION 1..14: note = peptide derived from viral capsid protein) [SEQ ID NO: 1978] : 11

Field ranked binding signal obtained from the microarray (01 binds strongest) (mAb 9C12), entry FQERLKEDTSFGGN (REGION 1..14: note = peptide derived from viral capsid protein) [SEQ ID NO: 1981] : 14

Field ranked binding signal obtained from the microarray (01 binds strongest) (mAb 9C12), entry VTQNEGTKTIANNL [SEQ ID NO: 1970] : 03

Field ranked binding signal obtained from the microarray (01 binds strongest) (mAb 9C12), entry KRPVDQSPQEPDSS (REGION 1..14: note = peptide derived from viral capsid protein) [SEQ ID NO: 1986] : 19

###

Test system: polyclonal antibody ab6982
Assay: Epitope mapping of polyclonal antibody ab6982 against cyclic peptides of Ad5 fiber and hexon (peptide array)
Type: binding, rabbits
Conditions: cyclic peptides of fiber protein (clusters 1-7)
Items are presented alongside their recorded antibody binding signal ranking from the microarray experiment.
# output: bare number, no unit

Guide cases for antibody binding signal ranking from the microarray experiment, answers given:
1. TVQIFADSTYELPY [SEQ ID NO: 2039] : 093
2. STGQVAVQIEWEIE [SEQ ID NO: 2055] : 049
3. 174 (SWDWSGHNYI) [compound 174] : 149

// switching to the query substance
// recorded antibody binding signal ranking from the microarray experiment for QVKEVTTNDGVTTI (REGION 1..14: note = peptide derived from viral capsid protein) [SEQ ID NO: 2048] : 173

###

Test system: polyclonal antibody ab6982
Assay: Epitope mapping of polyclonal antibody ab6982 against cyclic peptides of Ad5 fiber and hexon (peptide array)
Assay type: binding, rabbits
Conditions: cyclic peptides of fiber protein (clusters 1-7)
Items are presented alongside their recorded antibody binding signal ranking from the microarray experiment.
# output: bare number, no unit

Guide cases for antibody binding signal ranking from the microarray experiment, answers given:
1. 184 (FLDPEYW) [compound 184] : 050
2. VMITDEEEIRTTNP (REGION 1..14: note = peptide derived from viral capsid protein) [SEQ ID NO: 1998] : 052
3. EGASYQVPPQPNGM [SEQ ID NO: 2061] : 108
4. 200 (ATSSYTFSYI) [compound 200] : 097
5. SQSLDRLMNPLLDQ [SEQ ID NO: 2054] : 028

Field antibody binding signal ranking from the microarray experiment (polyclonal antibody ab6982), entry HKDDEEKFFPQSGV (REGION 1..14: note = peptide derived from viral capsid protein) [SEQ ID NO: 2002] : 150

Field antibody binding signal ranking from the microarray experiment (polyclonal antibody ab6982), entry QQRLSKTANDNNNS [SEQ ID NO: 1993] : 019

Field antibody binding signal ranking from the microarray experiment (polyclonal antibody ab6982), entry TTSGETLNQGNAAT [SEQ ID NO: 2057] : 079

Field antibody binding signal ranking from the microarray experiment (polyclonal antibody ab6982), entry 206 (YTFSYIA) [compound 206] : 181

Field antibody binding signal ranking from the microarray experiment (polyclonal antibody ab6982), entry NNFQFSYTFEDVPF (REGION 1..14: note = peptide derived from viral capsid protein) [SEQ ID NO: 1990] : 003

Field antibody binding signal ranking from the microarray experiment (polyclonal antibody ab6982), entry MNPGPAMASHKEGE [SEQ ID NO: 2017] : 011

Field antibody binding signal ranking from the microarray experiment (polyclonal antibody ab6982), entry EEEIKATNPVATER [SEQ ID NO: 2045] : 148

Field antibody binding signal ranking from the microarray experiment (polyclonal antibody ab6982), entry 203 (INEIFATSSY) [compound 203] : 110

Field antibody binding signal ranking from the microarray experiment (polyclonal antibody ab6982), entry EYRTTRPIGTRYLT [SEQ ID NO: 2062] : 134

Field antibody binding signal ranking from the microarray experiment (polyclonal antibody ab6982), entry FEKVPFHSMYAHSQ (REGION 1..14: note = peptide derived from viral capsid protein) [SEQ ID NO: 2031] : 058

###

System: polyclonal antibody ab6982
Test: Epitope mapping of polyclonal antibody ab6982 against cyclic peptides of Ad5 fiber and hexon (peptide array)
Format: binding, rabbits
Settings: cyclic peptides of hexon protein (clusters 8-16)
Items are presented alongside their recorded antibody binding signal ranking from the microarray experiment.
# output: bare number, no unit

Guide cases for antibody binding signal ranking from the microarray experiment, answers given:
1) 259 (VDEQAEQQKTHVF) [compound 259] : 041
2) 260 (ALEINLE) [compound 260] : 033
3) 304 (SYKDRMYSFFRNF) [compound 304] : 099
4) 280 (YSEDVDIETPDTH) [compound 280] : 059
5) 232 (DEVDEQAEQQKTH) [compound 232] : 24

// recorded antibody binding signal ranking from the microarray experiment for 265 (LYSEDVDIET) [compound 265] : 039

// recorded antibody binding signal ranking from the microarray experiment for 274 (ETPDTHI) [compound 274] : 051

// recorded antibody binding signal ranking from the microarray experiment for 311 (QMLANYNIGYQGF) [compound 311] : 190

// recorded antibody binding signal ranking from the microarray experiment for 302 (GDRTRYFSMW) [compound 302] : 101

// recorded antibody binding signal ranking from the microarray experiment for 289 (DRMYSFF) [compound 289] : 086

###

Test system: polyclonal antibody ab6982
Experiment: Epitope mapping of polyclonal antibody ab6982 against cyclic peptides of Ad5 fiber and hexon (peptide array)
Type: binding, rabbits
Details: cyclic peptides of fiber protein (clusters 1-7)
Items are presented alongside their recorded antibody binding signal ranking from the microarray experiment.
# output: bare number, no unit

Guide cases for antibody binding signal ranking from the microarray experiment, answers given:
1. KSNNVEFAVNTEGV [SEQ ID NO: 2016] : 009
2. QQRVSKTSADNNNS (REGION 1..14: note = peptide derived from viral capsid protein) [SEQ ID NO: 2007] : 015

// recorded antibody binding signal ranking from the microarray experiment for 190 (LDPEYWNFRN) [compound 190] : 155

// recorded antibody binding signal ranking from the microarray experiment for 177 (FSWDWSG) [compound 177] : 186

// recorded antibody binding signal ranking from the microarray experiment for 207 (EIFATSSYTFSYI) [compound 207] : 200

// recorded antibody binding signal ranking from the microarray experiment for 199 (NEIFATSSYTFSY) [compound 199] : 092

// recorded antibody binding signal ranking from the microarray experiment for GESESVPDPQPIGE [SEQ ID NO: 2058] : 091

// recorded antibody binding signal ranking from the microarray experiment for PQILIKNTPVPANP (REGION 1..14: note = peptide derived from viral capsid protein) [SEQ ID NO: 2006] : 006
